Items are presented alongside their recorded log2 fold change of degron read counts.
Target or test system: T1, CRBN, Q96SW2;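 further: pooled lentiviral library of zinc finger degron-EGFP fusions in mCherry-positive Jurkat cells, FACS-sorted after compound exposure, with degron abundance counted by next-generation sequencing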
T1 chain: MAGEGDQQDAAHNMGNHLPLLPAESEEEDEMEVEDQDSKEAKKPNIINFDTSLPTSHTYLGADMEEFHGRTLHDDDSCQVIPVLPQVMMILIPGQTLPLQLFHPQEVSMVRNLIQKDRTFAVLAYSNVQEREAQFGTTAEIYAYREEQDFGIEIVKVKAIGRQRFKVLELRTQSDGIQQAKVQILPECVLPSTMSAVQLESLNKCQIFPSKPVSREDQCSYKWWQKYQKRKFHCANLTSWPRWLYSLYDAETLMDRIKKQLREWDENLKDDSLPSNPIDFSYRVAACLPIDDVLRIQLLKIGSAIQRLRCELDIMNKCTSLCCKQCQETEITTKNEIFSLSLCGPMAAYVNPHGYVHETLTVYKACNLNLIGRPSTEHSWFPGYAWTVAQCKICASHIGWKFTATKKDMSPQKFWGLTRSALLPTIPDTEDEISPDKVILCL
Measurement protocol: log2 fold change of degron read counts, EGFP-low vs EGFP+ sorted cells (limma voom), compound-induced degradation; higher = more compound-induced degradation of the degron-EGFP fusion; degrons are variants of IKZF1/3 zinc finger 2; compound dose not given here
Assay conditions: Jurkat; 18 h; compound: compound 33 (diphenyl IMiD analogue)
Whole data set: some 8,300 sequences, median “log2 fold change of degron read counts, EGFP-low vs EGFP+ sorted cells (limma voom), compound-induced degradation” near -1.1, cut for the highest 2% near 3.2. What follows is part of a selection rich in the highest values, with near analogues and random picks from the rest.

{"Residue codes": "LKCPICGFQCTQKGNLLRHIKL [46L_47K_49P_50I_52G_53F_54Q_55C_67L_, Q9UKT9]", "log2 fold change of degron read counts": -1.46}
{"Residue codes": "FKCDVCGAYFTQKGNLLRHIKL [46F_47K_49D_50V_52G_53A_54Y_55F_67L_, Q9UKT9]", "log2 fold change of degron read counts": -3.07}

Entry under review: LGCEICGFNCTQKGNLLRHIKL [46L_47G_49E_50I_52G_53F_54N_55C_67L_, Q9UKT9] . Reported log2 fold change of degron read counts?
-1.47

Entry under review: LQCPICGFQCTQKGNLLRHIKL [46L_47Q_49P_50I_52G_53F_54Q_55C_67L_, Q9UKT9] . Reported log2 fold change of degron read counts?
1.77

Entry under review: FKCEICGHHFTQKGNLLRHIKL [46F_47K_49E_50I_52G_53H_54H_55F_67L_, Q9UKT9] . Reported log2 fold change of degron read counts?
-3.56

Entry under review: LCCPICGFQCTQKGNLLRHIKL [46L_47C_49P_50I_52G_53F_54Q_55C_67L_, Q9UKT9] . Reported log2 fold change of degron read counts?
2.76

Ref: the supplement of paper PMC12645437
